Test system: A549
assay.remarks: Cytotoxicity against human A549 cells after 48 hrs by MTT assay
Format: functional, cell-based
condition.info: A549, 48 h
Below, each entry is listed alongside its reported pIC50.
pIC50 (log units): -log10 of the concentration in mol/L.

Task: Lab note: record pIC50 of `C=CC(=C)CC[C@@H]1[C@@]2(C)CCC[C@](C)(COC(=O)/C=C\c3ccc(O)cc3)[C@@H]2CC[C@@]1(C)O` tested on A549.
Result: 4.77

Others:
Task: Lab note: record pIC50 of `C=CC(=C)CC[C@@H]1[C@@]2(C)CCC[C@](C)(COC(=O)/C=C\c3ccc(O)c(OC)c3)[C@@H]2CC[C@@]1(C)O` tested on A549.
Result: 4.76

* * *

Below, each entry is listed alongside its reported pIC50.
System: A549
assay.remarks: Cytotoxicity against human A549 cells after 48 hrs by MTT assay
Format: functional, cell-based
condition.info: A549, 48 h
pIC50: −log10 of the molar value.

Below, 2 molecules whose answers are already recorded.
Task: Give the measured pIC50 for C=C[C@]1(C)C=C2CC[C@@H]3[C@](C)(CCC[C@@]3(C)C(=O)O)[C@H]2CC1 [SANDARACOPIMARIC ACID]
Result: < 4.40

Task: Give the measured pIC50 for CC(C)c1cc2c(cc1O)[C@@]1(C=O)CCCC(C)(C)[C@@H]1CC2 [PISIFERAL]
Result: 4.68

Others:
Task: Give the measured pIC50 for `C=C[C@]1(C)C=C2CC[C@H]3C(C)(C)CCC[C@]3(C)[C@H]2[C@H](O)C1`
Result: < 4.40

Task: Give the measured pIC50 for `C=CC(=C)CC[C@@H]1[C@@]2(C)CCC[C@](C)(COC(=O)/C=C/c3ccc(O)cc3)[C@@H]2CC[C@@]1(C)O`
Result: 4.69

Task: Give the measured pIC50 for C=C1CC[C@@H]2[C@](C)(CCC[C@]2(C)C(=O)O)[C@H]1CC/C(C)=C/CO [ISOCUPRESSIC ACID]
Result: < 4.40

Task: Give the measured pIC50 for `C=C/C(C)=C/C[C@H]1C(=C)CC[C@@H]2[C@]1(C)CCC[C@]2(C)C(=O)O`
Result: < 4.40

Task: Give the measured pIC50 for C=C1CC[C@@H]2[C@](C)(CCC[C@]2(C)C(=O)O)[C@H]1CCC1=CCOC1=O [PINUSOLIDIC ACID]
Result: < 4.40

* * *

Test system: A549
assay.remarks: Cytotoxicity against human A549 cells after 48 hrs by MTT assay
Type: functional, cell-based
condition.info: A549, 48 h
pIC50: −log10 of the molar value.
Below, each entry is listed alongside its reported pIC50.

Below, 2 compounds whose answers are already recorded.
Task: Give the measured pIC50 for `C=C[C@]1(C)C=C2CC[C@H]3C(C)(C)[C@@H](O)CC[C@]3(C)[C@H]2[C@H](OC(C)=O)C1`
Result: < 4.40

Task: Give the measured pIC50 for `C=C1CC[C@@H]2[C@](C)(CCC[C@@]2(C)C(=O)O)[C@H]1CC/C(C)=C/COC(C)=O`
Result: < 4.40

Shifting focus to the compound that follows.
Task: Give the measured pIC50 for `C=CC(=C)[C@H](O)C[C@H]1C(=C)CC[C@@H]2[C@]1(C)CCC[C@]2(C)C(=O)O`
Result: < 4.40
